target: M-phase inducer phosphatase 3 (Homo sapiens); assay: Inhibitory activity against recombinant CDC25C
Sequence (P30307 whole entry): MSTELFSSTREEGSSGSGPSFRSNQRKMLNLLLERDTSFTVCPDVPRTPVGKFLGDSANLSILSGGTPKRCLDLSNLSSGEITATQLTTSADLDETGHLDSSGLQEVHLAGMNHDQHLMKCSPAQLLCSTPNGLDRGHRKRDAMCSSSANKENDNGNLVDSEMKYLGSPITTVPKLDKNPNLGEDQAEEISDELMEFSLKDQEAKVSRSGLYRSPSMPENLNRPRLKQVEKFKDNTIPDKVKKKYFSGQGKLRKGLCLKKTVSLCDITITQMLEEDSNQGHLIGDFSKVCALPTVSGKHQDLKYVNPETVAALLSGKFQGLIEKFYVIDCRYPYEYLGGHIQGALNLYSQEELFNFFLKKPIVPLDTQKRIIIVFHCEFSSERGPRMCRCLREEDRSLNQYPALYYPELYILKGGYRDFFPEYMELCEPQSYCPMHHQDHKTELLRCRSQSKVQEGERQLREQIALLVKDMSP
reportedMetric: pIC50
Give bare numbers, as −log10 of the molar value.

Example cases with answers are listed next.
[[record]]
smilesstr = "CN(C)CC=Nc1cc(O)c2cn(-c3ccccc3)nc2c1O"
targetortestsystem = "M-phase inducer phosphatase 3 (Homo sapiens)"
experimentalresult = 4.92

[[record]]
smilesstr = "CCc1nc2c(O)cc(N=CCN(C)C)c(O)c2[nH]1"
targetortestsystem = "M-phase inducer phosphatase 3 (Homo sapiens)"
experimentalresult = 4.92

[[record]]
smilesstr = "CCc1nc2c(O)cc(N=CCN(C)C)c(O)c2o1"
targetortestsystem = "M-phase inducer phosphatase 3 (Homo sapiens)"
experimentalresult = 6.89

[[record]]
smilesstr = "CN(C)CC=Nc1cc(O)c2nc(-c3ccccc3)oc2c1O"
targetortestsystem = "M-phase inducer phosphatase 3 (Homo sapiens)"
experimentalresult = 6.64

[[record]]
smilesstr = "CN(C)CC=Nc1cc(O)c2nn(-c3ccccc3)cc2c1O"
targetortestsystem = "M-phase inducer phosphatase 3 (Homo sapiens)"
experimentalresult = 4.92


Provide each entry's pIC50 from the list below.
1. CN(C)CC=Nc1cc(O)c2oc(-c3ccccc3)nc2c1O
2. CCc1nc2c(O)c(N=CCN(C)C)cc(O)c2o1

## Result
6.64
6.89
